# assay protocol: Cloud point temperature of a 0.025M aqueous solution of polyoxyethylene(8)nonylphenyl ether with 5% by weight additive
# Format: physicochemical
# measurement context: Table 1; activity enhancer 5% by weight; 0.025 M polyoxyethylene(8)nonylphenyl ether
Overview of reported Cloud point temperature across a group of compounds:
State the answer as a number, implicitly in °C.

[
  {
    "compound": "OCCCCO",
    "result value": 45.0
  },
  {
    "compound": "C1COCCO1",
    "result value": 44.0
  },
  {
    "compound": "COCCOCCO",
    "result value": 43.5
  },
  {
    "compound": "CC(O)CCC(C)O (stereo not shown)",
    "result value": 52.0
  },
  {
    "compound": "CC(C)O",
    "result value": 56.0
  },
  {
    "compound": "CC(O)C(=O)O (stereo not shown) [2-hydroxypropionic acid]",
    "result value": 45.0
  }
]

Now, please, on to the next compound.
Cloud point temperature measured on `CC(C)=O` = 46.3

meta.source: patent US4699924A
